# test_name: Quantitative High-Throughput drug screen in 47 multiple myeloma cell lines against the NCATS MIPE library collection: MMM1_PLB cell viability assay (AID 1918976); further: nearly all actives have a fitted effect of over 35% in size
# assay_context: MMM1 myeloma cells viability, CellTiter-Glo, 48 h; series mostly up to 45.8 µM
Records with an inconclusive call do not appear. Calls of active or inactive are those of the source. The call rests on the fitted dose curve; in most records, active means well fitted cell-killing curve with a large enough effect; inconclusive means small, poorly fitted or top-dose-only effect, or effect the other way; inactive means no such curve, though single readings can be large or run the other way.
Classes used: active, inactive

smiles_code | class_name
C[C@]12CC[C@H](O)CC1=CC[C@H]1[C@H]3CCC(=O)[C@@]3(C)CC[C@@H]12 | active
CCN(CC)C(=O)c1ccc(C2=CC3(CCNCC3)Oc3cccc(O)c32)cc1 | active
O=C(Nc1ccncc1)C(=O)c1cn(Cc2ccc(Cl)cc2)c2ccccc12 | active
CCCCCC[C@H]1C(=O)O[C@H](C)[C@H](NC(=O)c2cccc(NC=O)c2O)C(=O)O[C@@H](C)[C@@H]1OC(=O)CC(C)C | active
CN1CCN(c2ccc([N+](=O)[O-])c3no[n+]([O-])c23)CC1 | active
N#C[C@H](O[C@@H]1O[C@H](CO[C@@H]2O[C@H](CO)[C@H](O)[C@H](O)[C@H]2O)[C@H](O)[C@H](O)[C@H]1O)c1ccccc1 | active
C[C@@H]1CC[C@@]2(OC1)O[C@H]1C[C@H]3[C@@H]4CC=C5C[C@@H](O[C@@H]6O[C@H](CO)[C@@H](O[C@@H]7O[C@@H](C)[C@H](O)[C@@H](O)[C@@H]7O)[C@H](O)[C@@H]6O[C@@H]6O[C@@H](C)[C@H](O)[C@@H](O)[C@@H]6O)CC[C@]5(C)[C@@H]4CC[C@]3(C)[C@@H]1[C@H]2C | active
CCOC(=O)c1cncn1[C@H](C)c1ccccc1 | active
CC(C)[C@H]1C(=O)N[C@H](CO)Cc2c[nH]c3cccc(c23)N1C | inactive
C[C@@H]1O[C@@H](O[C@@H]2C=C3CC[C@@H]4[C@@H](CC[C@]5(C)[C@H](c6ccc(=O)oc6)CC[C@@]45O)[C@@]3(C)CC2)[C@H](O)[C@H](O)[C@H]1O | active
CN(C)[C@@H]1C(=O)C(C(N)=O)=C(O)[C@@]2(O)C(=O)C3=C(O)c4c(O)cccc4[C@@](C)(O)[C@H]3[C@H](O)[C@@H]12 | active
CC(O)=C(C#N)C(=O)Nc1cc(Br)ccc1Br | active

* * *

# System: CP191
# test_name: qHTS profiling for inhibitors of Plasmodium falciparum proliferation (AID 504749); further: nearly all actives have a fitted effect of over 60% in size; further: potency means the concentration at half of the fitted maximal effect
# assay_context: P. falciparum in erythrocytes, SYBR Green DNA, 72 h; series mostly up to 28.7 µM
Results filed as inconclusive are left out. The source made the active and inactive calls. The call rests on the fitted dose curve; in most records, active means well fitted inhibition curve with a large enough effect; inconclusive means small, poorly fitted or top-dose-only effect; inactive means flat fitted curve, though single readings scatter.
endpoint_name: Potency

molecule | endpoint_name | assay_value
CN(C)[C@@H]1C(=O)C(C(N)=O)=C(O)[C@@]2(O)C(=O)C3=C(O)c4c(O)cccc4[C@@](C)(O)[C@H]3[C@H](O)[C@@H]12 | Potency | inactive
C=CCN1CC[C@]23CCCCC2[C@H]1Cc1ccc(O)cc13 (stereo partly specified) | Potency | inactive
C#CC1(O)CCC2C3CCC4=CC(=O)CCC4(C)C3CCC21C (stereo unspecified) | Potency | inactive
CC(C)NC(C)Cc1ccc(I)cc1 (stereo unspecified) | Potency | inactive
Cc1cc(O)ccc1Cl | Potency | inactive
CC(=O)[O][Hg][c]1ccccc1 | Potency | 8.91 µM (active)
